pIC50: −log10 of the molar value.
For reference, pIC50 measured on FRK (Homo sapiens, UniProt P42685):
OBSERVATION TYPE: pIC50

Input line: Supply recorded pIC50 for COc1cc2nc(-c3ccc(C)cc3)cc(OCCCNC3CCN(C)CC3)c2cc1OC here.
Output line: 5.56

I: COc1cc2nc(-c3ccc(C)cc3)cc(OCCCNC3CCCCC3)c2cc1OC
II: FC(F)(F)c1ccc(-c2cc(OCCCn3ccnc3)c3cc4c(cc3n2)OCO4)cc1 [12c]
III: Fc1ccc(-c2cc(OCCCN3CCOCC3)c3cc(Br)ccc3n2)cc1 [16d]
IV: COc1cc2nc(-c3ccc(C(F)(F)F)cc3)cc(OCCCn3ccnc3)c2cc1OC
Input line: Order field: pIC50 | Direction: descending (largest first) Give the labels in the order specified.
Output line: IV, I, III, II

---

Quick note: these are IC50 numbers for system: FRK (Homo sapiens)
Sequence (P42685 whole entry): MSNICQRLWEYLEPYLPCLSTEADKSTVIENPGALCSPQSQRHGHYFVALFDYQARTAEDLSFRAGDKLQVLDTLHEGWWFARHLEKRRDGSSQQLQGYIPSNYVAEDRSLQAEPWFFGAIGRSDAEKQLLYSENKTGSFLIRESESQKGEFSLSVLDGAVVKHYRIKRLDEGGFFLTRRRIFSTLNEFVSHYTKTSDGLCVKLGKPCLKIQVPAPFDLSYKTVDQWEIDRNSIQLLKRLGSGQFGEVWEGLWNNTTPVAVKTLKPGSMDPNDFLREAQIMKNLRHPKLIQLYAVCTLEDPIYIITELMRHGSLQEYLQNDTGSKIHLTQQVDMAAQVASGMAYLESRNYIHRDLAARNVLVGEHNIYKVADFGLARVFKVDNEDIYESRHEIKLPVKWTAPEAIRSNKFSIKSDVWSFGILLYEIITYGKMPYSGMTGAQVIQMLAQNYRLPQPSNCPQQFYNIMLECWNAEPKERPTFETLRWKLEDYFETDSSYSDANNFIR
OBSERVATION TYPE: IC50 (nM)

# count of solved cases: 7
Input line: // fetch IC50; item: Clc1ccc(-c2cc(OCCCn3ccnc3)c3cc(Br)ccc3n2)cc1 [16a] ; system: FRK (Homo sapiens)
Output line: 6150

Input line: Answer briefly: IC50 recorded on FRK (Homo sapiens) for COc1cc2nc(-c3ccc(-c4cccs4)cc3)cc(OCCCN3CCN(C)CC3)c2cc1OC
Output line: 3920

Input line: Enter recorded IC50 with FRK (Homo sapiens) for COc1cc2nc(-c3ccc(C)cc3)cc(OCCCNCC3CCCO3)c2cc1OC (stereo not drawn) here.
Output line: 2520

Input line: Jot down IC50 (FRK (Homo sapiens)) of COc1cc2nc(-c3ccc(Cl)cc3)cc(OCCCNCC3CCCO3)c2cc1OC (stereo not drawn) .
Output line: 507

Input line: Would you please give the reported IC50 of COc1ccc(-c2ccc3nc(-c4ccc(Cl)cc4)cc(OCCCn4ccnc4)c3c2)cc1 [20a] with FRK (Homo sapiens)?
Output line: 2620

Input line: System FRK (Homo sapiens). Read-out IC50. Item Clc1ccc(-c2cc(OCCCN3CCOCC3)c3cc(-c4ccco4)ccc3n2)cc1 [20f] . Report value.
Output line: 632

Input line: Determine reported IC50 for COc1ccc(-c2ccc3nc(-c4ccc(F)cc4)cc(OCCCn4ccnc4)c3c2)cc1 [20c] ; test system: FRK (Homo sapiens).
Output line: 1440

1: COc1cc2nc(-c3ccc(C(F)(F)F)cc3)cc(OCCCNC3CCCCC3)c2cc1OC
2: FC(F)(F)c1ccc(-c2cc(OCCCN3CCOCC3)c3cc4c(cc3n2)OCO4)cc1 [12d]
Input line: Lab note: record which item had the higher IC50, 1 or 2 . Lab note: record the label of whichever item you select.
Output line: 2

---

What follows is a collection of IC50 values obtained with HER-2 (Homo sapiens, UniProt P04626).
Sequence (P04626 23-1255): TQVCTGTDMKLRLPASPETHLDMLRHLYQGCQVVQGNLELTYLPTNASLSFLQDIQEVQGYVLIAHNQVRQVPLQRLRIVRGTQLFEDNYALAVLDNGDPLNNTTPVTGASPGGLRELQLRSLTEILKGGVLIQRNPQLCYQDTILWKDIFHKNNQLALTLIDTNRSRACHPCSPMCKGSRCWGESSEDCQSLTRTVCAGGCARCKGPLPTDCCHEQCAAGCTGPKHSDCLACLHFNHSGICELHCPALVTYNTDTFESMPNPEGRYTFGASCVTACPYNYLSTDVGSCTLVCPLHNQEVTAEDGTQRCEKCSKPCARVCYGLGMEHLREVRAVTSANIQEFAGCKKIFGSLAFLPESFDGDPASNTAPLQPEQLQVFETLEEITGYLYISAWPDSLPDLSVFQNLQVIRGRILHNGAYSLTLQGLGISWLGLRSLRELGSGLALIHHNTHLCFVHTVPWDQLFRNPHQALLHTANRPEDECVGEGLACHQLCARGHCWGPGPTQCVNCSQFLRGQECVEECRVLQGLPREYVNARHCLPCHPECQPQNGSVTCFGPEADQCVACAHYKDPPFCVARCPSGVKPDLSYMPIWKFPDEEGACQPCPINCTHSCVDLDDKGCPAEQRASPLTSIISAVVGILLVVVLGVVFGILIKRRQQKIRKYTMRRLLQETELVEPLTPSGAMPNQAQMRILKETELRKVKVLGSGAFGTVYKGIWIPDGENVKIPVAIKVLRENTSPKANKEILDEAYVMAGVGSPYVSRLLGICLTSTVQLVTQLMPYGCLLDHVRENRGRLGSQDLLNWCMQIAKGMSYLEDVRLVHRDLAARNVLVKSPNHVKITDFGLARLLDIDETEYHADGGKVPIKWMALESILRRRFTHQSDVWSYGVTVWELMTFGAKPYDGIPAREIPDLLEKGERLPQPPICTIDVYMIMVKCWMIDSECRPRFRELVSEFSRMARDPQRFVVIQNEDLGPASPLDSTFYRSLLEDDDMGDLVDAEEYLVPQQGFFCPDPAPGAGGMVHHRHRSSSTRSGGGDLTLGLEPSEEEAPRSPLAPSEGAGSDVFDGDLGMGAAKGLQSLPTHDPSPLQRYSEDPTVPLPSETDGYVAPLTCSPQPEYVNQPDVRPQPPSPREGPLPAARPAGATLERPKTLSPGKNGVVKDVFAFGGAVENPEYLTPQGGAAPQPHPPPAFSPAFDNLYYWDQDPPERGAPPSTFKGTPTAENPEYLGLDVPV
OBSERVATION TYPE: IC50 (nM)

Input line: Identify IC50 associated with the compound COc1cc2nc(-c3ccc(C)cc3)cc(OCCCNC3CCN(C)CC3)c2cc1OC
Output line: 332

Input line: Dear colleague, please send me the reported IC50 for Fc1ccc(-c2cc(OCCCn3ccnc3)c3cc(Br)ccc3n2)cc1 [16c] when you can.
Output line: 1610

Input line: Consider the compound FC(F)(F)c1ccc(-c2cc(OCCCNC3CCCCC3)c3ccccc3n2)cc1 [10b] and give its recorded IC50.
Output line: 598

P: Clc1ccc(-c2cc(OCCCN3CCOCC3)c3cc(Br)ccc3n2)cc1 [16b]
Q: FC(F)(F)c1ccc(-c2cc(OCCCN3CCOCC3)c3cc4c(cc3n2)OCO4)cc1 [12d]
Input line: # argmax over IC50 for candidates P and Q Kindly give the label for the entry you pick.
Output line: P

---

Property: GI% MDMBA-231; scope: individual compounds
# System: MDMBA-231 breast cancer cell line
# PROTOCOL NOTES: MTT antiproliferative assay, MDMBA-231
# Format: cell-based
# PARTICULARS: 10 µM, 24 h
Kindly answer with a numeric value in %, unit omitted.

Here are 4 compounds together with their reported answers.
Input line: Assign GI% MDMBA-231 to the following record: Fc1ccc(-c2cc(OCCCN3CCOCC3)c3cc(Br)ccc3n2)cc1 [16d]
Output line: 80.24

Input line: Look up GI% MDMBA-231 of Clc1ccc(-c2cc(OCCCn3ccnc3)c3cc(Br)ccc3n2)cc1 [16a] and report it.
Output line: 51.24

Input line: Provide measured GI% MDMBA-231 value, entry: COc1cc2nc(-c3ccc(Cl)cc3)cc(OCCCNC3CCN(C)CC3)c2cc1OC [6c]
Output line: 19.38

Input line: Give GI% MDMBA-231 for Fc1ccc(-c2cc(OCCCn3ccnc3)c3cc(Br)ccc3n2)cc1 [16c]
Output line: 20.11

// next item, GI% MDMBA-231 requested
Input line: Complete the entry with GI% MDMBA-231 for Clc1ccc(-c2cc(OCCCN3CCOCC3)c3cc4c(cc3n2)OCO4)cc1 [12b]
Output line: 14.28

---

Listing of entries alongside the reported GI% MDMBA-231.
# Test system: MDMBA-231 breast cancer cell line
# PROTOCOL NOTES: MTT antiproliferative assay, MDMBA-231
# Assay type: cell-based
# PARTICULARS: 10 µM, 24 h
Give the value, in units of %, as a plain number.

// known answers, use as guide
Input line: Answer with the recorded GI% MDMBA-231 of COc1cc2nc(-c3ccc(C(F)(F)F)cc3)cc(OCCCNC3CCN(C)CC3)c2cc1OC only.
Output line: 84.76

Input line: Return value of GI% MDMBA-231 for input Clc1ccc(-c2cc(OCCCn3ccnc3)c3cc4c(cc3n2)OCO4)cc1 [12a] , no commentary.
Output line: 4.98

Input line: Tell me measured GI% MDMBA-231 for COc1cc2nc(-c3ccc(C)cc3)cc(OCCCNCC3CCCO3)c2cc1OC (centres unmarked) please.
Output line: 14.39

---
Input line: Provide one value: measured GI% MDMBA-231 of COc1cc2nc(-c3ccc(C(F)(F)F)cc3)cc(OCCCNC3CCCCC3)c2cc1OC
Output line: 48.15

Input line: Check the records and state GI% MDMBA-231 for COc1cc2nc(-c3ccc(C(F)(F)F)cc3)cc(OCCCn3ccnc3)c2cc1OC
Output line: 8.42

Input line: Note GI% MDMBA-231 for the compound shown: COc1cc2nc(-c3ccc(Cl)cc3)cc(OCCCn3ccnc3)c2cc1OC
Output line: 4.67

Input line: Please give measured GI% MDMBA-231 of the following entry: Clc1ccc(-c2cc(OCCCN3CCOCC3)c3cc(Br)ccc3n2)cc1 [16b]
Output line: 45.31

Input line: Hello, please tell me recorded GI% MDMBA-231 for this one: COc1ccc(-c2ccc3nc(-c4ccc(Cl)cc4)cc(OCCCn4ccnc4)c3c2)cc1 [20a]
Output line: 29.08

---

pIC50: −log10 of the molar value.
Measurement record for UniProtKB P17948; quantity recorded: pIC50.
OBSERVATION TYPE: pIC50

Illustrative cases are given below, each with its answer.
Input line: Report pIC50 for COc1cc2nc(-c3ccc(C)cc3)cc(OCCCn3ccnc3)c2cc1OC
Output line: 6.29

Input line: Check the records and state pIC50 for Clc1ccc(-c2cc(OCCCn3ccnc3)c3cc(-c4ccco4)ccc3n2)cc1 [20e]
Output line: 6.14

I: Clc1ccc(-c2cc(OCCCN3CCOCC3)c3cc(Br)ccc3n2)cc1 [16b]
II: FC(F)(F)c1ccc(-c2cc(OCCCn3ccnc3)c3cc4c(cc3n2)OCO4)cc1 [12c]
Input line: When their pIC50 values are compared, which is larger, I or II ? Mark your selection by writing its label.
Output line: I

1: COc1ccc(-c2ccc3nc(-c4ccc(Cl)cc4)cc(OCCCn4ccnc4)c3c2)cc1 [20a]
2: FC(F)(F)c1ccc(-c2cc(OCCCN3CCOCC3)c3cc4c(cc3n2)OCO4)cc1 [12d]
Input line: Endpoint returns whichever of 1 and 2 has the numerically higher pIC50. Refer to your chosen entry by its label in the reply.
Output line: 1

1: Clc1ccc(-c2cc(OCCCN3CCOCC3)c3cc(-c4ccco4)ccc3n2)cc1 [20f]
2: Clc1ccc(-c2cc(OCCCn3ccnc3)c3cc(Br)ccc3n2)cc1 [16a]
3: COc1ccc(-c2ccc3nc(-c4ccc(Cl)cc4)cc(OCCCN4CCOCC4)c3c2)cc1 [20b]
Input line: Hey, quick one: sort these by pIC50, largest value first please. Use the labels to give the ranking in the order requested.
Output line: 1, 2, 3
(1: 6.06, 2: 5.71, 3: 5.32)

---

# TEST TARGET: VEGFR-1 (Homo sapiens, UniProt P17948)
# Sequence (P17948 27-1338): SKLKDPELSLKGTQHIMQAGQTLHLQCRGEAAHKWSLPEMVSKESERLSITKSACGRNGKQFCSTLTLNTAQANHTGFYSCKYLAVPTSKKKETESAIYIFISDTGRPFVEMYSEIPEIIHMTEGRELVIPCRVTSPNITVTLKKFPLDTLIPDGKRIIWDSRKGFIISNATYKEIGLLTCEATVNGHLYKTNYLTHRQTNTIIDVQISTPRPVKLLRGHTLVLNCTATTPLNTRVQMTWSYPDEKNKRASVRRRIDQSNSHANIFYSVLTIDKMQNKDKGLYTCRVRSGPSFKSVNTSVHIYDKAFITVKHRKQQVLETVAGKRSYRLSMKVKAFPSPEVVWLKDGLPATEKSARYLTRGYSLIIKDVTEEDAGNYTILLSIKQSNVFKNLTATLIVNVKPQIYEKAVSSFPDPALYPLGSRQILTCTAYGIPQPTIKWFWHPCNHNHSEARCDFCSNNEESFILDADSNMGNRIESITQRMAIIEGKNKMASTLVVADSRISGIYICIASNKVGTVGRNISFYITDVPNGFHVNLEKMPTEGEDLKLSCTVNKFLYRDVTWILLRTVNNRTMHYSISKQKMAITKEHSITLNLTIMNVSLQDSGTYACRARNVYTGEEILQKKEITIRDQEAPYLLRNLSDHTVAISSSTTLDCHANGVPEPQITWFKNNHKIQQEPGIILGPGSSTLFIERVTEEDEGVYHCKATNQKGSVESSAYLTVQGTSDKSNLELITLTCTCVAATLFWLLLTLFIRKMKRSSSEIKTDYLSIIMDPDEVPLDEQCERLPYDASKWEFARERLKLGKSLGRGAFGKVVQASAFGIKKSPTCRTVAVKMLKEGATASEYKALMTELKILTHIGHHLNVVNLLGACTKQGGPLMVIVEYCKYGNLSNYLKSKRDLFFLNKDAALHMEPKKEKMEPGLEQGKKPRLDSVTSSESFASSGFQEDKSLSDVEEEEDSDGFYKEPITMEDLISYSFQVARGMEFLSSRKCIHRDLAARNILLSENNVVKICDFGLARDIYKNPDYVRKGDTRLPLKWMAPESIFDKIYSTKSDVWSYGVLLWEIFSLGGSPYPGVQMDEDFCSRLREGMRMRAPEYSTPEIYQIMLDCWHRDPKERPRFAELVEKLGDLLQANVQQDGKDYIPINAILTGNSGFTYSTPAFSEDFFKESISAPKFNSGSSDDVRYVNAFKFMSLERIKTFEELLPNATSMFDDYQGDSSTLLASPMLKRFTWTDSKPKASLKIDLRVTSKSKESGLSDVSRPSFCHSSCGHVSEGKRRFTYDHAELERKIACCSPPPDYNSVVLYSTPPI
OBSERVATION TYPE: IC50 (nM)

Input line: Return reported IC50 for target or system VEGFR-1 (Homo sapiens, UniProt P17948), item COc1cc2nc(-c3ccc(C(F)(F)F)cc3)cc(OCCCNC3CCCCC3)c2cc1OC [6g] .
Output line: 1110

I: Fc1ccc(-c2cc(OCCCn3ccnc3)c3cc(Br)ccc3n2)cc1 [16c]
II: Clc1ccc(-c2cc(OCCCn3ccnc3)c3cc4c(cc3n2)OCO4)cc1 [12a]
III: COc1cc2nc(-c3ccc(Cl)cc3)cc(OCCCN3CCN(C)CC3)c2cc1OC [6a]
Input line: Arrange these compounds by their IC50, starting with the largest number. Field: ranking. Enter the labels in the order requested.
Output line: I, II, III
(I: 2560 nM, II: 1760 nM, III: 95.3 nM)

These entries and their values trace back to paper PMC8725837.
